Values were extracted from PubChem BioAssay (NCI).

- Tested on: COLO 205 colon
- TEST DETAILS: NCI-60 one-dose screen, 48 h
- SETUP CONDITIONS: 10 µM unless noted
Compounds without any hit were thinned out: in the full panel of roughly 83,000, 20% have a hit. Active and inactive are the calls of the source. Rule for the calls: active = growth percent below 10; inactive = the rest.
Give one outcome, nothing more. List: active, inactive

How did this test come out for `CCn1c(SCC(=O)c2ccc(Br)cc2)nnc1-c1cc2c([nH]c3ccccc32)c(-c2cccc(O)c2)n1` ?
inactive

Just curious, what result did `COC(=O)c1ccc2c(c1)Oc1ccc(Cl)cc1-c1cc(C)nn1-2` get here?
inactive

Could you kindly confirm the outcome this assay logged for `NCC(=O)NS(=O)(=O)OC[C@H]1O[C@@H](n2cnc3c(N)ncnc32)[C@H](O)[C@@H]1O` ?
inactive

For this molecule, state the assay outcome: `Cc1ccc(-c2nc3c(N=Nc4ccc(S(N)(=O)=O)cc4)c(N)nn3c(N)c2C#N)cc1`
inactive

Given C=C(C)[C@@H]1C/C=C(\COC(=O)[C@H](OC(C)=O)C(NC(=O)c2ccccc2)c2ccccc2)CC[C@H]2O[C@]2(C)CC/C=C(\C)CC1 (some centres not stated) , state the outcome it received in this test.
inactive

Could you please tell me the result logged for `CN1CCN(Cn2nc(-c3cc(F)c(Cl)cc3Cl)n(/N=C/c3ccc(N(C)C)cc3)c2=S)CC1` in this assay?
inactive

Write down the call the test reported for this molecule. Item: COc1ccccc1N1CCN(CC(O)COc2c(Br)c(Br)c(Br)c3c2OC(C)(C)C3)CC1 (configuration not stated)
inactive

Returns: the outcome recorded for CC(C)NCC(O)COc1ccc(CC(N)=O)cc1 (configuration not stated) in this assay.
inactive

Check the results log: what was the call for `Cc1cc(NCCN(C(C)C)C(C)C)nc(/N=C(\N)Nc2ccc(Cl)c(C(F)(F)F)c2)n1` ?
active

Would you mind telling me which call this test gave `CC(C)[C@@H]1NC(=O)[C@]2(C)CSC(=N2)c2ccnc(c2)CNC(=O)C[C@@H](/C=C/CCS)OC1=O` ?
active

What outcome does the record of this test show for `Cc1[nH]n(C(=O)c2ccncc2)c(=O)c1N=Nc1ccc(S(=O)(=O)Nc2ccncn2)cc1` ?
inactive

Per the records of this test, what outcome belongs to `Cc1[nH]c2ccc(F)cc2c1CCNC(=O)C1CCN(C(=O)c2ccc(-c3ccccc3)cc2)CC1` ?
inactive

---

- Test system: A549/ATCC NSCLC
- TEST DETAILS: NCI-60 one-dose screen, 48 h (100 = growth as untreated, 0 = no growth, -100 = all killed)
- SETUP CONDITIONS: 10 µM unless noted
This is part of a sample that, as a whole, favours compounds with a hit. Of some 83,000 tested, about 20% had one in any assay.
Okay, here is how we bin by growth: L: < 60%; M: ≥ 60% and < 90%; H: ≥ 90%

Hi, small favor: classify OC[C@@H](O)C(O[C@@H]1O[C@H](CO)[C@H](O)[C@H](O)[C@H]1O)[C@H](O)[C@@H](O)CO (stereo partly specified) by its growth when you get a moment.
H

Category of `C/C(=N/NC(=O)Cn1c2ccccc2c2ccncc21)c1cccs1` :
M

Tag the class for `Cc1cc2nc(-c3c(N)ncc(C#N)c3-c3ccc(Cl)cc3)[nH]c2cc1C`
L

Each compound maps to one class by growth. Which class for `Clc1ccc(OCc2nc(-c3ccccc3)n[nH]2)c(Cl)c1` ?
H

Each compound maps to one class by growth. Which class for `CCn1cc(C(=O)O)c(=O)c2cc(F)c(N3CCN(CC(=O)Nc4ccc(C(C)=O)cc4)CC3)cc21` ?
H

Any idea which band `NC(=NCCCOc1ccc(F)cc1)Nc1ccc(Cl)c(Cl)c1` is in?
M

Class label required: `O=C(Nc1ccc(-n2cc(-c3ccncc3)c(-c3ccc(O)c(Cl)c3)n2)cc1)c1cc(C(F)(F)F)cc(C(F)(F)F)c1`
L

For `O=[N+]([O-])c1ccccc1NC1c2ccccc2Oc2ccccc21` , which growth bin applies?
L

Given `CC(C)CNCC(=O)Nc1ccc(Cc2ccc(NC(=O)CNCC(C)C)cc2)cc1` , name the class its growth places it in.
M

Hey, which category is CCN(CC)CCNCC(O)Cc1ccc(OC)cc1 (stereo unspecified) in, do you know?
H

Band for the recorded growth of `Cn1c2ccccc2c2ssc(=S)c21` ?
H

Which growth category applies to `CN(C)c1ccc(/C=N/n2c(-c3cc(F)c(Cl)cc3Cl)nn(CN3CCOCC3)c2=S)cc1` here?
H

Which class is correct for the following compound? `COc1ccccc1C(OC(C)=O)OC(C)=O`
M

Exam item: assign `CCOC(=O)c1[nH]c(-c2ccc(Cl)cc2)cc1-c1cccnc1` to the correct category.
L

Any idea which band COc1cc(NC(C)CCCN2C(=O)c3ccccc3C2=O)c2nc(C)ccc2c1OC (stereo unspecified) is in?
H

Please let me know in which category the item CC(CCC(=O)O)[C@H]1CCC2C3C(=O)C[C@@H]4CC(=O)CC[C@]4(C)C3CC(=O)[C@@]21C (stereo partly specified) belongs.
H

Which category does the recorded growth put `COc1ccc(Cl)cc1NC(=O)c1cc2c(n1C)-c1nc(NC(=O)C(C)C)sc1CC2` in?
M

Looking at `CCOc1ccc(NC(=O)Nc2cc(C(C)C)ccc2C)cc1` , which class would you pick?
L

Categorize the following entry: `O=C(Nc1ccc(-n2cc(-c3ccncc3)c(-c3ccc(O)c(Cl)c3)n2)cc1)c1ccc(Cl)c(Cl)c1`
L

Class? Entry: `Cc1ccc2[nH]c3nc4cccnc4c(C)c3c2c1`
M

For the record `CCCCCCCCCCCCCCCC(=O)NS(=O)(=O)OC[C@H]1O[C@@H](n2cnc3c(N)ncnc32)[C@H](O)[C@@H]1O` , report the class its growth corresponds to.
L

Could you place CCOC(=O)C1CN(Cc2ccccc2)C(=O)C1=O (stereo unspecified) in its proper category? Many thanks.
H

Dear colleague, I would appreciate it if you could identify the bin for `Nc1nccc(=S)[nH]1` and reply at your convenience.
M

Field: class (growth) — entry: `O=C1/C(=C/c2cccc3cnccc23)Cc2cc(F)ccc21`
H

Which band does `CNCCCOc1c(Br)cc(CCNC(=O)/C(Cc2cc(Br)c(OC)c(Br)c2)=N/O)cc1Br` fall in?
L

Kindly identify the class of `Cc1cccc(Cc2cnc(NC(=O)CCc3ccc(C)o3)s2)c1` .
L

Each compound maps to one class by growth. Which class for `FC(F)(F)c1cn(CCN2CCOCC2)c2ncnc(Cl)c12` ?
H

Class (by measured growth) for CCC1S/C(=N\N=C(/C)c2ccco2)N(c2ccccc2)C1=O (stereo unspecified)
H
